Origin of the recorded values: the supplement of paper PMC6757056

B1: library; a variant is named by its letters at N, in order (parent)
chain: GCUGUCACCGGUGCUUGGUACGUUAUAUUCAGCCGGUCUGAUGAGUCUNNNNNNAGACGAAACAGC

# Variants of: B1
# Assay text: normalized RNA/DNA level without ligand (relative to sTRSVctl = 100) (log10 (% of sTRSVctl)); HEK293T overexpressing SLC46A1; higher = less ribozyme self-cleavage, higher mRNA level
# Condition: without (6R,S)-folinic acid; ligand present: no
Measure: normalized RNA/DNA level without ligand (log10)
Give bare numbers.

GCUGUCACCGGUGCUUGGUACGUUAUAUUCAGCCGGUCUGAUGAGUCUUCCCGCAGACGAAACAGC [UCCCGC]	2.01
GCUGUCACCGGUGCUUGGUACGUUAUAUUCAGCCGGUCUGAUGAGUCUUAUCUAAGACGAAACAGC [UAUCUA]	1.99
GCUGUCACCGGUGCUUGGUACGUUAUAUUCAGCCGGUCUGAUGAGUCUUUUUGGAGACGAAACAGC [UUUUGG]	1.88

Please look at the items below and tell me normalized RNA/DNA level without ligand (log10) for each one, in order.
1. GCUGUCACCGGUGCUUGGUACGUUAUAUUCAGCCGGUCUGAUGAGUCUAAUCCCAGACGAAACAGC [AAUCCC]
2. GCUGUCACCGGUGCUUGGUACGUUAUAUUCAGCCGGUCUGAUGAGUCUUCCGGGAGACGAAACAGC [UCCGGG]
3. GCUGUCACCGGUGCUUGGUACGUUAUAUUCAGCCGGUCUGAUGAGUCUCUCCGCAGACGAAACAGC [CUCCGC]
4. GCUGUCACCGGUGCUUGGUACGUUAUAUUCAGCCGGUCUGAUGAGUCUUACCCAAGACGAAACAGC [UACCCA]
5. GCUGUCACCGGUGCUUGGUACGUUAUAUUCAGCCGGUCUGAUGAGUCUGUGUAAAGACGAAACAGC [GUGUAA]
6. GCUGUCACCGGUGCUUGGUACGUUAUAUUCAGCCGGUCUGAUGAGUCUCCGCGCAGACGAAACAGC [CCGCGC]

Found:
2.02
2.02
2.04
2.04
1.96
2.07
